Kindly state melting point for each of the entries shown.

{"MOLECULE": "CCOC(=O)CCC(CC(=O)c1ccc(NCc2ccc3ccc4nc(C)[nH]c(=O)c4c3c2)cc1)C(=O)OCC (racemic)", "melting point": "189 to 190 °C"}
{"MOLECULE": "Clc1ncc(-c2ccccc2)o1", "melting point": "34 °C"}
{"MOLECULE": "COc1cc(CN2C(=O)C3(COc4cc5c(cc43)OCCO5)c3ccccc32)ccc1F (stereo unspecified)", "melting point": "161 to 163 °C"}
{"MOLECULE": "O=C(O)c1cccc([N+](=O)[O-])c1SCCO", "melting point": "91 to 93 °C"}
{"MOLECULE": "CN(C)C=C(C(=O)c1ccccc1)c1ccc(F)cc1", "melting point": "115 to 116 °C"}

Please look at the items below and tell me melting point for each one, in order.
1. O=c1ccn(-c2cccc(S(=O)(=O)c3nc4ccccc4[nH]3)c2)nc1-c1ccnn1-c1ccccc1
2. CS(=O)(=O)c1ccc(-c2cnn(-c3ccc(F)c(F)c3)c(=O)c2Oc2ccc(F)cc2)cc1

Ans.
["160 to 161 °C", "178 to 180 °C"]

Please look at the items below and tell me melting point for each one, in order.
1. COc1cccc(C(=O)C=Cc2cccc(O)c2)c1
2. Cc1ccc(N2C(=O)C3=C(CCCC3)C2=O)c2c1OC(C)C2 (stereo unspecified)
3. CC1(C)CSCC(=O)N1
4. O=C(CNC(=O)CN1CCCC1=O)NCC(=O)Nc1ccncc1
5. CNC(=O)ON(C(=O)NC)C(=O)C(C)(C)C
6. O=c1oc(-c2ccc(F)cc2)cc2ccccc12

Ans.
74 to 77 °C
158 to 160 °C
151 to 152 °C
250 to 253 °C
117 to 119 °C
134 to 135 °C

Please look at the items below and tell me melting point for each one, in order.
1. O=c1[nH]c2ccc(CCN3CCN(c4ncnc5ccccc45)CC3)cc2o1
2. CC(C)(CCCC(C(O)C(C)(C)C)n1cncn1)c1ccccc1 (stereo unspecified)
3. Cc1cc(SC2=C(O)CC(CCc3cccnc3)(C(C)C)OC2=O)c(C(C)(C)C)cc1CO (stereo unspecified)
4. O=C1CCC(c2ccc(Cl)c(Cl)c2)c2ccccc2N1 (stereo unspecified)
5. CCOC(=O)Cc1ccnc2c([N+](=O)[O-])cccc12

Ans.
["200 °C", "98 to 99 °C", "122 to 125 °C", "191 to 194 °C", "67 to 69 °C"]

Please look at the items below and tell me melting point for each one, in order.
1. CCc1nc(NC(=O)C2=C(O)c3ccc4ccccc4c3S(=O)(=O)N2C)sc1C
2. COC(=O)[C@H](Cc1ccc(NC(=O)c2c(Cl)cccc2Cl)cc1)NC(=S)C1(CCCSC)CCC1

Ans.
233 to 234 °C
184 to 186 °C

The reported value for CSc1sc(C(=O)O)c2c1-c1oc(C)nc1CC2 in terms of melting point is > 300 °C

* * *

Kindly state melting point for each of the entries shown.

Worked examples, 8 compounds total:
{"COMPOUND": "Nc1sc2c(c1C(=O)c1ccc(Br)s1)CCN(Cc1ccccc1)C2", "OBSERVABLE": "melting point", "MEAS_VALUE": "87 to 89 °C"}
{"COMPOUND": "C=C1C(=CC=C2CCCC3(C)C2CCCC3C(C)CCCC(C)(C)O)CC(O)CC1O (configuration not stated)", "OBSERVABLE": "melting point", "MEAS_VALUE": "124 to 127 °C"}
{"COMPOUND": "Nc1ccccc1C(=O)Nc1ccc(C(F)(F)F)cc1", "OBSERVABLE": "melting point", "MEAS_VALUE": "160 to 161 °C"}
{"COMPOUND": "O=c1cc(-c2ccccc2SCc2ccccc2)[nH]c2ccc(Cl)cc12", "OBSERVABLE": "melting point", "MEAS_VALUE": "198 to 202 °C"}
{"COMPOUND": "CC(=O)NC[C@H]1CN(c2ccc(N3CCC(O)(CN4CCOCC4)CC3)c(F)c2)C(=O)O1", "OBSERVABLE": "melting point", "MEAS_VALUE": "184 to 186 °C"}
{"COMPOUND": "CN(C)C=C(C#N)C#N", "OBSERVABLE": "melting point", "MEAS_VALUE": "81 to 82 °C"}
{"COMPOUND": "COC[C@H]1CCCN1S(=O)(=O)c1ccc2c(c1)C(=O)C(=O)N2", "OBSERVABLE": "melting point", "MEAS_VALUE": "161 to 164 °C"}
{"COMPOUND": "CCC(O)CN1CCC(CCN2CCN(c3cccc(Cl)c3Cl)CC2)CC1 (configuration not stated)", "OBSERVABLE": "melting point", "MEAS_VALUE": "94 °C"}

Please look at the items below and tell me melting point for each one, in order.
1. S=c1cc(-c2cnccn2)ss1
2. O=C(NCc1cccnc1)c1ccc2n1Cc1ccccc1N(C(=O)c1ccc(-c3ccccc3CN3CCCCC3)cc1)C2
3. CCOc1ccc(Nc2ncc3cc(-c4c(Cl)cccc4Cl)c(=O)n(CC)c3n2)cc1
4. CC(C)(C)OC(=O)c1cnc(F)cn1
5. CC(O)CN1CCCC(c2cccs2)=N1 (configuration not stated)

Ans.
1: 196 °C; 2: 199 to 202 °C; 3: 192 to 194 °C; 4: 26.5 to 28.1 °C; 5: 74 to 77 °C

Please look at the items below and tell me melting point for each one, in order.
1. CON(C)C(=O)c1cc2c3c(c1)c(-c1cccc(Cl)c1)cc(=O)n3CC2
2. COc1cc(C(C)C)c2c(c1)S(=O)(=O)N(COc1cc(C(F)(F)F)nn1-c1ccncc1)C2=O
3. CCOC(C(=O)O)c1ccc2c(c1)C(C)(C)CCC2(C)C (racemic)

Ans.
["162 °C", "161 to 162 °C", "106 to 109 °C"]

Please look at the items below and tell me melting point for each one, in order.
1. CC(C)NC(=O)N1CCc2[nH]cnc2C1c1ccccc1 (configuration not stated)
2. CC(C)C1CC(=O)C(C(=O)NS(=O)(=O)c2ccccc2)C(=O)C1 (configuration not stated)
3. CC(C)(C)OC(=O)c1ncn2c1[C@@H]1CCCN1C(=O)c1c-2cccc1C(F)(F)F
4. COC(=O)C1=C(C)NC(C)=C(C(=O)OC)C1C1CCC(C(=O)OC)C1 (configuration not stated)
5. COc1cc2ncc(C#N)c(C)c2cc1OCc1ccccc1
6. O=C(Nc1cccc(C(F)(F)F)c1)N1CCCCc2cc(O)ccc21

Ans.
245 °C
112 to 114 °C
201 to 203 °C
144 to 145 °C
165 to 172 °C
172 to 173 °C

Please look at the items below and tell me melting point for each one, in order.
1. Cn1c(C(F)(F)C(F)(F)F)cc(=O)n(-c2cc(C(=O)O)c(Cl)cc2F)c1=O
2. CNc1nc2ccc(C3=NNC(=O)NC3C)cc2s1 (configuration not stated)

Ans.
1: 229 to 231 °C; 2: 290 to 295 °C
